# credit: patent US12070455B2

Target: TLR8 (Homo sapiens)
Construct: Human peripheral blood mononuclear cells (PBMCs) consist of lymphocytes, monocytes and dendritic cells that express TLR7, TLR8 and TLR9; endogenous in cells
Experiment: TLR8 human peripheral blood mononuclear cell (PBMC) cell-based assay
Conditions: human PBMCs; 1 h with antagonist, then TLR8 agonist Compound A 800 nM for 6 h; cytokines (TNFa and IL12p40) in supernatant; read-out: TLR-8 EC50
Catalogue of compounds with associated EC50
Report as a plain number; the unit nM is understood.

Cc1c(C2CCN(C(=O)[C@H]3COCCN3)CC2)sc2[nH]c(-c3cn4ncnc4c4c3COC4)c(C(C)C)c12 [Example 52]	26.7

Dear colleague, I am looking for the recorded EC50 of the following compound: Cc1c(C2CCC(N3CC4(COC4)C3)CC2)sc2[nH]c(-c3cn4ncnc4c4c3CCC4)c(C(C)C)c12 (stereo not shown) [Example 29]
1

Dear colleague, I am looking for the recorded EC50 of the following compound: Cc1nc2c3c(c(-c4[nH]c5sc(C6CCN(C(=O)[C@H]7COCCN7)CC6)c(C)c5c4C(C)C)cn2n1)CCC3 [Example 53]
16.2

Dear colleague, I am looking for the recorded EC50 of the following compound: Cc1c(C2C[C@@H]3C[C@H]2CN3)sc2[nH]c(-c3cn4ncnc4c4c3CCC4)c(C(C)C)c12 (stereo partly shown) [Example 3]
0.31

Dear colleague, I am looking for the recorded EC50 of the following compound: CC(C)c1c(-c2cn3ncnc3c3c2CCC3)[nH]c2sc(C(=O)N(C)C3CCNCC3)cc12 [Example 41]
2.56

Dear colleague, I am looking for the recorded EC50 of the following compound: Cc1c(C2CCN(CC(N)=O)CC2)sc2[nH]c(-c3cn4ncnc4c4c3CCO4)c(C(C)C)c12 [Example 36]
27.6

Dear colleague, I am looking for the recorded EC50 of the following compound: Cc1c(C2CCN(C(=O)[C@H]3C[C@@H](F)CN3)CC2)sc2[nH]c(-c3cn4ncnc4c4c3CCC4)c(C(C)C)c12 [Example 16]
12.5

----------
Molecular target: TLR8 (Homo sapiens, UniProt Q9NR97)
Construct: Human peripheral blood mononuclear cells (PBMCs) consist of lymphocytes, monocytes and dendritic cells that express TLR7, TLR8 and TLR9; endogenous in cells
Sequence (Q9NR97 27-1041): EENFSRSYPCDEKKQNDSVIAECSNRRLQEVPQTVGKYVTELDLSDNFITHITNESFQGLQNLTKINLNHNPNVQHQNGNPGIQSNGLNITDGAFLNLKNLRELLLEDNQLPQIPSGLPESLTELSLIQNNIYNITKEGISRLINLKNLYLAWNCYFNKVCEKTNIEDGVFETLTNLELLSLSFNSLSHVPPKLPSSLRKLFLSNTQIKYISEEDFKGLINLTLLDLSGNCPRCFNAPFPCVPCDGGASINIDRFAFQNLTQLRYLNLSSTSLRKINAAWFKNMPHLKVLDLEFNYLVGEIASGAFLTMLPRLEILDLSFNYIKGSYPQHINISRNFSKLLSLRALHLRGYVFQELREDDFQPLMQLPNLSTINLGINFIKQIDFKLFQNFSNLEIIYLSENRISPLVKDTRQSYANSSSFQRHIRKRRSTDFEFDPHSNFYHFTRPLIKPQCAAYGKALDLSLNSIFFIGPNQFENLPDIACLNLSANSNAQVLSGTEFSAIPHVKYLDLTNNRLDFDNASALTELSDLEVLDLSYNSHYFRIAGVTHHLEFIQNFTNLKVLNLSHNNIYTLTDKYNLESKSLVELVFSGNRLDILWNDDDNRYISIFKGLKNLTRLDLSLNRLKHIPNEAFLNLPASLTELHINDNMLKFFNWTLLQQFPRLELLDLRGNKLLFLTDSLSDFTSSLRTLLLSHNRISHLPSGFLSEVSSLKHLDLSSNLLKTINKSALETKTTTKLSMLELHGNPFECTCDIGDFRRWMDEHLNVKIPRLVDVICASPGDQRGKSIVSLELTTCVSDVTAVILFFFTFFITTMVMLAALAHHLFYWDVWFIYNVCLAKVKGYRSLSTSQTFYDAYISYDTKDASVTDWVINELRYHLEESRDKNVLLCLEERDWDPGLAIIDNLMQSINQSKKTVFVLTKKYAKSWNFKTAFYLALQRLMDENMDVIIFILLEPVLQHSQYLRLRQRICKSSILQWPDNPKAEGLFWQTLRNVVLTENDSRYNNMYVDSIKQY
Assay: TLR8 human peripheral blood mononuclear cell (PBMC) cell-based assay
Conditions: human PBMCs; 1 h with antagonist, then TLR8 agonist Compound A 800 nM for 6 h; cytokines (TNFa and IL12p40) in supernatant; read-out: TLR-8 EC50
Under this convention, condition met denotes EC50 strictly below 5 nM and condition not met denotes EC50 at or above 5 nM.

// below: answered compounds
Cc1nc2c3c(c(-c4[nH]c5sc([C@@H]6C[C@H]7CC[C@@H](C6)N7CC(N)=O)c(C)c5c4C(C)C)cn2n1)COC3 [Example 46]	condition not met
Cc1c(C2C[C@@H]3C[C@H]2CN3CC(N)=O)sc2[nH]c(-c3cn4ncnc4c4c3CCC4)c(C(C)C)c12 (some centres unmarked) [Example 8]	condition met
Cc1nc2c3c(c(-c4[nH]c5sc([C@@H]6C[C@@H]7C[C@H]6CN7CC(N)=O)c(C)c5c4C(C)C)cn2n1)COC3 [Example 43]	condition met
Cc1c(C2CCC(N3CC(C)(O)C3)CC2)sc2[nH]c(-c3cn4ncnc4c4c3CCC4)c(C(C)C)c12 (centres unmarked) [Example 28]	condition met

Would you kindly verify if EC50 of Cc1c(C2CCN(Cc3ccn(C)n3)CC2)sc2[nH]c(-c3cn4ncnc4c4c3CCC4)c(C(C)C)c12 [Example 13] is strictly less than 5 nM?
condition not met

Would you kindly verify if EC50 of Cc1c(C2CCN(C(=O)[C@@H]3COCCN3)CC2)sc2[nH]c(-c3cn4ncnc4c4c3CCC4)c(C(C)C)c12 [Example 15] is strictly less than 5 nM?
condition not met
